Test system: SK-MEL-28
Test: NCI tumour cell line growth inhibition, 48 h
Calls of active or inactive are those of the source. No stated cut-off is given here; in the data, active = GI50 up to about 1.1 µM and inactive = higher.
OBSERVABLE: GI50

Consider the reported GI50 for these compounds:
Cc1ccc(N2C(=O)/C(=C/c3ccc(N(CCC#N)CCC#N)cc3)N=C2COc2ccc(Cl)cc2Cl)cc1 : > 100 µM (inactive)
O=C(Nc1ccc(Cl)cc1Cl)c1cc2nc3ccccc3c(=O)n2c2ccccc12 : > 10 µM (inactive)
CCOC(=O)c1c(N2CCOCC2)ncn(-c2cccc(Cl)c2)c1=O : > 100 µM (inactive)
CC1(C)N=C(N)N=C(N)N1c1cccc(OCc2cccc(N)c2)c1 : > 100 µM (inactive)

Shift focus to the following entry.
# input Quick one: GI50 for O/N=C1/C(=C/c2ccc(Cl)cc2)CCCC1C(NO)c1ccc(Cl)cc1 (stereo not given) ?
# output 5.6 µM (inactive)

// provenance: ChEMBL document CHEMBL1201862
